// data source = patent US4732977A

method-summary: Half-life (stability) in buffer solution
Type: physicochemical
condition-label: biological buffer; read-out: T 1/2 (half-life in solution) (converted)
Measured half-life of individual entries
endpoint: half-life

INSERT INTO measurements (substance_smiles, endpoint, test_result) VALUES
  ('C[C@@H](O)[C@H]1C(=O)N2C(C(=O)[O-])=C(SCc3cncc[n+]3C)C[C@H]12', 'half-life', '10.2 h'),
  ('C[C@@H](O)[C@H]1C(=O)N2C(C(=O)[O-])=C(SCc3cn(C)[n+](C)c3)C[C@H]12', 'half-life', '15.2 h');

###

method-summary: Half-life (stability) in buffer solution
Type: physicochemical
condition-label: 10^-4 M, phosphate buffer, 36.7° C.; read-out: t 1/2 (half-life in solution) (converted)
endpoint: half-life at 100 µM (min)

INSERT INTO results (compound, unit_info, test_result) VALUES
  ('Cc1cc(C)[n+](C)c(CSC2=C(C(=O)[O-])N3C(=O)[C@H]([C@@H](C)O)C3[C@H]2C)c1 (stereo in doubt) [Example 51A]', 'min', 1340);

###

method-summary: Urinary recovery after intramuscular administration to mice
Format: in vivo
condition-label: mouse, urine, im, 20 mg/kg, 20 mg/kg i.m., 0-3 hours
endpoint: dose excreted at 3 h (%)

INSERT INTO measurements (substance_smiles, endpoint, test_result) VALUES
  ('C[C@@H](O)[C@H]1C(=O)N2C(C(=O)[O-])=C(SCc3cc[n+](C)cc3)C[C@H]12', 'dose excreted at 3 h', 26.1);

###

method-summary: Blood levels in mice after intramuscular administration;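 note: compounds dissolved in 0.1 M phosphate buffer at pH 7, data from one experiment using four mice for each compound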
condition-label: mouse, blood, im, 20 mg/kg
endpoint: AUC (ng·h/mL)

INSERT INTO assay_data (substance_smiles, endpoint, unit_info, test_result) VALUES
  ('CCC[n+]1ccc(CSC2=C(C(=O)[O-])N3C(=O)[C@H]([C@@H](C)O)[C@H]3C2)cc1', 'AUC', 'ng·h/mL', 8500),
  ('C[C@@H](O)[C@H]1C(=O)N2C(C(=O)[O-])=C(SCc3scc[n+]3C)C[C@H]12', 'AUC', 'ng·h/mL', 7400),
  ('C[C@@H](O)[C@H]1C(=O)N2C(C(=O)[O-])=C(SCc3n(C)cc[n+]3C)C[C@H]12', 'AUC', 'ng·h/mL', 8500),
  ('Cc1c(CSC2=C(C(=O)[O-])N3C(=O)[C@H]([C@@H](C)O)[C@H]3C2)ccc[n+]1C', 'AUC', 'ng·h/mL', 7600),
  ('C[C@@H](O)[C@H]1C(=O)N2C(C(=O)[O-])=C(SCc3cc[n+](C)cc3)C[C@H]12', 'AUC', 'ng·h/mL', 6300),
  ('C[C@@H](O)[C@H]1C(=O)N2C(C(=O)[O-])=C(SCCc3cc[n+](C)cc3)C[C@H]12', 'AUC', 'ng·h/mL', 5300),
  ('C[C@@H](O)[C@H]1C(=O)N2C(C(=O)[O-])=C(SCc3cccc[n+]3C)C[C@H]12', 'AUC', 'ng·h/mL', 7700),
  ('Cc1scc(CSC2=C(C(=O)[O-])N3C(=O)[C@H]([C@@H](C)O)[C@H]3C2)[n+]1C', 'AUC', 'ng·h/mL', 10500),
  ('Cc1ccc[n+](C)c1CSC1=C(C(=O)[O-])N2C(=O)[C@H]([C@@H](C)O)[C@H]2C1', 'AUC', 'ng·h/mL', 11800),
  ('Cc1sc(CSC2=C(C(=O)[O-])N3C(=O)[C@H]([C@@H](C)O)[C@H]3C2)c(C)[n+]1C', 'AUC', 'ng·h/mL', 9500),
  ('C[C@@H](O)[C@H]1C(=O)N2C(C(=O)[O-])=C(SCc3cn(C)n[n+]3C)C[C@H]12', 'AUC', 'ng·h/mL', 9500),
  ('C[C@@H](O)[C@H]1C(=O)N2C(C(=O)[O-])=C(SCc3cn(CC(=O)O)n[n+]3C)C[C@H]12', 'AUC', 'ng·h/mL', 3900),
  ('C[C@@H](O)[C@H]1C(=O)N2C(C(=O)[O-])=C(SCc3n(Cc4ccccc4)cc[n+]3C)C[C@H]12', 'AUC', 'ng·h/mL', 6400);
